Reported IC50 Ratio (vs PYY(3-36)) values for a set of binders
subject of test: human Y2 receptor (human) (UniProt P49146)
Sequence (P49146 whole entry): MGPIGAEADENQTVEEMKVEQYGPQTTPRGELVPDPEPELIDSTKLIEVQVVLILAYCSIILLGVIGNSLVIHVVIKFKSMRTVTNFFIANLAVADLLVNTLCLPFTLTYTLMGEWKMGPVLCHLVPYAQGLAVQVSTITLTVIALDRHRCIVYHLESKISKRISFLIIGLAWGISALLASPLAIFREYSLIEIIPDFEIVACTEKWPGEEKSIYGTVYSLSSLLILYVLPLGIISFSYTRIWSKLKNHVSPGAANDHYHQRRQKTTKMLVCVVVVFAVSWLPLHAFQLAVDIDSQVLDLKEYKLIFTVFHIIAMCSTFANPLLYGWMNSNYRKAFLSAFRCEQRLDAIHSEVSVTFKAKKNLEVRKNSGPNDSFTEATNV
assay protocol: RBA: [125I]-PYY displacement, hY2R/CHO membranes
Non-standard residues stand in square brackets, D forms with d. *: point of attachment. 4‑guanidinomethylbenzoyl = N=C(N)NCc1ccc(C(=O)*)cc1; 4Pal = N[C@@H](Cc1ccncc1)C(=O)O; dHyp = O=C(O)[C@H]1C[C@H](O)CN1; Cha = N[C@@H](CC1CCCCC1)C(=O)O; αMeP = C[C@@]1(C(=O)O)CCCN1; Isobutyryl = CC(C)C(=O)*; Nle = CCCC[C@H](N)C(=O)O; Abu = CC[C@H](N)C(=O)O; Aib = CC(C)(N)C(=O)O; Bz = O=C(c1ccccc1)*
Lab note: jot down the number only; don't add units.

Isobutyryl-R[Abu][Cha]QNL[Aib]TRQR[Cha]-NH2 (SMILES CC[C@H](NC(=O)[C@H](CCCNC(=N)N)NC(=O)C(C)C)C(=O)N[C@@H](CC1CCCCC1)C(=O)N[C@@H](CCC(N)=O)C(=O)N[C@@H](CC(N)=O)C(=O)N[C@@H](CC(C)C)C(=O)NC(C)(C)C(=O)N[C@H](C(=O)N[C@@H](CCCNC(=N)N)C(=O)N[C@@H](CCC(N)=O)C(=O)N[C@@H](CCCNC(=N)N)C(=O)N[C@@H](CC1CCCCC1)C(N)=O)[C@@H](C)O) [Isobutanoyl-[Abu26, Cha27,36, Gln28, Aib31]-PYY(25-36)]: 45

Recorded result, Ac-S[dHyp]RH[Cha][Cha]NL[Aib]TRQR[Cha]-NH2 (SMILES CC(=O)N[C@@H](CO)C(=O)N1C[C@@H](O)C[C@@H]1C(=O)N[C@@H](CCCNC(=N)N)C(=O)N[C@@H](Cc1c[nH]cn1)C(=O)N[C@@H](CC1CCCCC1)C(=O)N[C@@H](CC1CCCCC1)C(=O)N[C@@H](CC(N)=O)C(=O)N[C@@H](CC(C)C)C(=O)NC(C)(C)C(=O)N[C@H](C(=O)N[C@@H](CCCNC(=N)N)C(=O)N[C@@H](CCC(N)=O)C(=O)N[C@@H](CCCNC(=N)N)C(=O)N[C@@H](CC1CCCCC1)C(N)=O)[C@@H](C)O) [Ac-[D-Hyp24, Cha27,28,36, Aib31]-PYY(23-36)] , IC50 Ratio (vs PYY(3-36)): 1.1

// field: IC50 Ratio (vs PYY(3-36)); key: Bz-RHH[Cha]NL[Aib]TRQR[Cha]-NH2 (SMILES CC(C)C[C@H](NC(=O)[C@H](CC(N)=O)NC(=O)[C@H](CC1CCCCC1)NC(=O)[C@H](Cc1c[nH]cn1)NC(=O)[C@H](Cc1c[nH]cn1)NC(=O)[C@H](CCCNC(=N)N)NC(=O)c1ccccc1)C(=O)NC(C)(C)C(=O)N[C@H](C(=O)N[C@@H](CCCNC(=N)N)C(=O)N[C@@H](CCC(N)=O)C(=O)N[C@@H](CCCNC(=N)N)C(=O)N[C@@H](CC1CCCCC1)C(N)=O)[C@@H](C)O) [Benzoyl-[His27, Cha28,36, Aib31]-PYY(25-36)] ; value = 5.6

So, {4‑guanidinomethylbenzoyl}-[Nle]H[Cha][Cha]NR[Cha]TRQR[Cha]-NH2 (SMILES CCCC[C@H](NC(=O)c1ccc(CNC(=N)N)cc1)C(=O)N[C@@H](Cc1c[nH]cn1)C(=O)N[C@@H](CC1CCCCC1)C(=O)N[C@@H](CC1CCCCC1)C(=O)N[C@@H](CC(N)=O)C(=O)N[C@@H](CCCNC(=N)N)C(=O)N[C@@H](CC1CCCCC1)C(=O)N[C@H](C(=O)N[C@@H](CCCNC(=N)N)C(=O)N[C@@H](CCC(N)=O)C(=O)N[C@@H](CCCNC(=N)N)C(=O)N[C@@H](CC1CCCCC1)C(N)=O)[C@@H](C)O) [4-Guanidinomethylbenzoyl-[Nle25, Cha27,28,31,36, Arg30]-PYY(25-36)] ? Its IC50 Ratio (vs PYY(3-36)) was 7.2

// recorded IC50 Ratio (vs PYY(3-36)) for Ac-S[αMeP]RH[Cha][Cha]NL[Aib]TRQR[Cha]-NH2 (SMILES CC(=O)N[C@@H](CO)C(=O)N1CCC[C@@]1(C)C(=O)N[C@@H](CCCNC(=N)N)C(=O)N[C@@H](Cc1c[nH]cn1)C(=O)N[C@@H](CC1CCCCC1)C(=O)N[C@@H](CC1CCCCC1)C(=O)N[C@@H](CC(N)=O)C(=O)N[C@@H](CC(C)C)C(=O)NC(C)(C)C(=O)N[C@H](C(=O)N[C@@H](CCCNC(=N)N)C(=O)N[C@@H](CCC(N)=O)C(=O)N[C@@H](CCCNC(=N)N)C(=O)N[C@@H](CC1CCCCC1)C(N)=O)[C@@H](C)O) [Ac-[αMePro24, Cha27,28,36, Aib31]-PYY(23-36)] : 2.8

Form: binder = Isobutyryl-R[Abu][Cha][4Pal]NL[Aib]TRQR[Cha]-NH2 (SMILES CC[C@H](NC(=O)[C@H](CCCNC(=N)N)NC(=O)C(C)C)C(=O)N[C@@H](CC1CCCCC1)C(=O)N[C@@H](Cc1ccncc1)C(=O)N[C@@H](CC(N)=O)C(=O)N[C@@H](CC(C)C)C(=O)NC(C)(C)C(=O)N[C@H](C(=O)N[C@@H](CCCNC(=N)N)C(=O)N[C@@H](CCC(N)=O)C(=O)N[C@@H](CCCNC(=N)N)C(=O)N[C@@H](CC1CCCCC1)C(N)=O)[C@@H](C)O) [Isobutanoyl-[Abu26, Cha27,36, Pya(4)28, Aib31]-PYY(25-36)] ; IC50 Ratio (vs PYY(3-36)) = 26

Bz-RH[Cha][Cha]NL[Aib]TRQR[Cha]-NH2 (SMILES CC(C)C[C@H](NC(=O)[C@H](CC(N)=O)NC(=O)[C@H](CC1CCCCC1)NC(=O)[C@H](CC1CCCCC1)NC(=O)[C@H](Cc1c[nH]cn1)NC(=O)[C@H](CCCNC(=N)N)NC(=O)c1ccccc1)C(=O)NC(C)(C)C(=O)N[C@H](C(=O)N[C@@H](CCCNC(=N)N)C(=O)N[C@@H](CCC(N)=O)C(=O)N[C@@H](CCCNC(=N)N)C(=O)N[C@@H](CC1CCCCC1)C(N)=O)[C@@H](C)O) [Benzoyl-[Cha27,28,36, Aib31]-PYY(25-36)] has a reported IC50 Ratio (vs PYY(3-36)) of 28

# IC50 Ratio (vs PYY(3-36)) (binder: Isobutyryl-R[Abu][Cha][Cha]NQ[Aib]TRQR[Cha]-NH2 (SMILES CC[C@H](NC(=O)[C@H](CCCNC(=N)N)NC(=O)C(C)C)C(=O)N[C@@H](CC1CCCCC1)C(=O)N[C@@H](CC1CCCCC1)C(=O)N[C@@H](CC(N)=O)C(=O)N[C@@H](CCC(N)=O)C(=O)NC(C)(C)C(=O)N[C@H](C(=O)N[C@@H](CCCNC(=N)N)C(=O)N[C@@H](CCC(N)=O)C(=O)N[C@@H](CCCNC(=N)N)C(=O)N[C@@H](CC1CCCCC1)C(N)=O)[C@@H](C)O) [Isobutanoyl-[Abu26, Cha27,28,36, Gln30, Aib31]-PYY(25-36)] ) is 19
